Form field: Hot plate: relative therapeutic index (Th.I.) (one value per entry).
# Tested on: mouse
# ASSAY_PROTOCOL: animal or person
# CONDITION_NOTES: Table I; mouse, oral; LD10/ED90, relative to aminophenazone = 1,00
MEASURED_METRIC: Hot plate: relative therapeutic index (Th.I.)

[
  {
    "MOLECULE": "Cc1c(N(C)C)c(=O)n(-c2ccccc2)n1C [aminophenazone]",
    "VAL": "1,00"
  },
  {
    "MOLECULE": "COc1ccc2c3c1O[C@H]1[C@@H](O)C=C[C@H]4[C@@H](C2)N(C)CC[C@@]341 [codeine phosphate]",
    "VAL": "1,49"
  },
  {
    "MOLECULE": "CCOc1ccc(NC(C)=O)cc1 [phenacetine]",
    "VAL": "1,71"
  },
  {
    "MOLECULE": "Br.c1ccc2c(OCCN3CCOCC3)n[nH]c2c1",
    "VAL": "3,53"
  },
  {
    "MOLECULE": "CC(=O)Oc1ccccc1C(=O)O [acetylsalicylate]",
    "VAL": "1,67"
  }
]

* * *

# System: mouse
# ASSAY_PROTOCOL: animal or person
# CONDITION_NOTES: Table I; mouse, oral; LD10/ED90, relative to aminophenazone = 1,00
MEASURED_METRIC: Writhing Test: relative therapeutic index (Th.I.)

[
  {
    "COMPOUND": "Cc1c(N(C)C)c(=O)n(-c2ccccc2)n1C [aminophenazone]",
    "VAL": "1,00"
  },
  {
    "COMPOUND": "CCOc1ccc(NC(C)=O)cc1 [phenacetine]",
    "VAL": "0,66"
  },
  {
    "COMPOUND": "Br.c1ccc2c(OCCN3CCOCC3)n[nH]c2c1",
    "VAL": "1,30"
  },
  {
    "COMPOUND": "COc1ccc2c3c1O[C@H]1[C@@H](O)C=C[C@H]4[C@@H](C2)N(C)CC[C@@]341 [codeine phosphate]",
    "VAL": "1,92"
  },
  {
    "COMPOUND": "CC(=O)Oc1ccccc1C(=O)O [acetylsalicylate]",
    "VAL": "0,80"
  }
]

* * *

# Tested on: mouse
# ASSAY_PROTOCOL: animal or person
# CONDITION_NOTES: mouse, in vivo, po
MEASURED_METRIC: Writhing Test: relative therapeutic index (Th.I.)

[
  {
    "COMPOUND": "C1CCc2c(n[nH]c2OCCN2CCOCC2)C1",
    "VAL": 2.07
  },
  {
    "COMPOUND": "CC(=O)Oc1ccccc1C(=O)O [acetylsalicylate]",
    "VAL": 0.91
  },
  {
    "COMPOUND": "CCOc1ccc(NC(C)=O)cc1",
    "VAL": 0.74
  },
  {
    "COMPOUND": "Cc1c(N(C)C)c(=O)n(-c2ccccc2)n1C",
    "VAL": 1.00
  }
]

* * *

# Tested on: rat
# ASSAY_PROTOCOL: animal or person
# Assay type: in vivo
# CONDITION_NOTES: Table II; rat, p.o.
Would you please tag the item True when its Relative effectivity, relative to aminophenazone = 1.00 is 2 or above, and False when it is below?

[
  {
    "COMPOUND": "COc1ccc2c3c1O[C@H]1[C@@H](O)C=C[C@H]4[C@@H](C2)N(C)CC[C@@]341 [codeine phosphate]",
    "ANSWER_LABEL": "True"
  },
  {
    "COMPOUND": "Cc1c(N(C)C)c(=O)n(-c2ccccc2)n1C [aminophenazone]",
    "ANSWER_LABEL": "False"
  },
  {
    "COMPOUND": "CCOc1ccc(NC(C)=O)cc1 [phenacetine]",
    "ANSWER_LABEL": "False"
  },
  {
    "COMPOUND": "Br.c1ccc2c(OCCN3CCOCC3)n[nH]c2c1",
    "ANSWER_LABEL": "True"
  },
  {
    "COMPOUND": "CC(=O)Oc1ccccc1C(=O)O [acetylsalicylate]",
    "ANSWER_LABEL": "False"
  }
]

* * *

# ASSAY_PROTOCOL: Acute oral toxicity in the mouse (LD50, 7-day observation)
# Format: in vivo
# CONDITION_NOTES: in vivo, Table I, relative to effective substance, read-out: Mean lethal dosage (LD50)
Form field: LD50 at 168 h (one value per entry).

[
  {
    "COMPOUND": "COc1ccc2c3c1O[C@H]1[C@@H](O)C=C[C@H]4[C@@H](C2)N(C)CC[C@@]341 [codeine phosphate]",
    "LD50 at 168 h / mg/kg": 265
  },
  {
    "COMPOUND": "Br.c1ccc2c(OCCN3CCOCC3)n[nH]c2c1",
    "LD50 at 168 h / mg/kg": 615
  }
]

* * *

# ASSAY_PROTOCOL: Acute oral toxicity in the mouse (LD50, 7-day observation)
# Type: in vivo
# CONDITION_NOTES: in vivo, Table III, read-out: Mean lethal dosage (LD50)

[
  {
    "COMPOUND": "C1CCc2c(n[nH]c2OCCN2CCOCC2)C1",
    "LD50 at 168 h": "1720 mg/kg"
  },
  {
    "COMPOUND": "CC(=O)Oc1ccccc1C(=O)O [acetylsalicylate]",
    "LD50 at 168 h": "835 mg/kg"
  },
  {
    "COMPOUND": "Cc1c(N(C)C)c(=O)n(-c2ccccc2)n1C [aminophenazone]",
    "LD50 at 168 h": "550 mg/kg"
  },
  {
    "COMPOUND": "CCOc1ccc(NC(C)=O)cc1 [phenacetine]",
    "LD50 at 168 h": "1250 mg/kg"
  }
]

* * *

# ASSAY_PROTOCOL: Acute oral toxicity in the rat (LD50)
# CONDITION_NOTES: in vivo

[
  {
    "COMPOUND": "Cc1c(N(C)C)c(=O)n(-c2ccccc2)n1C",
    "LD50": "1350 mg/kg"
  },
  {
    "COMPOUND": "C1CCc2c(n[nH]c2OCCN2CCOCC2)C1",
    "LD50": "1600 mg/kg"
  },
  {
    "COMPOUND": "CC(=O)Oc1ccccc1C(=O)O [acetylsalicylate]",
    "LD50": "1400 mg/kg"
  }
]

* * *

Form field: Hot plate: relative therapeutic index (Th.I.) (one value per entry).
# Test system: mouse
# ASSAY_PROTOCOL: animal or person
# CONDITION_NOTES: mouse, in vivo, po
MEASURED_METRIC: Hot plate: relative therapeutic index (Th.I.)

[
  {
    "MOLECULE": "C1CCc2c(n[nH]c2OCCN2CCOCC2)C1",
    "STUDY_TARGET": "mouse",
    "VAL": 2.67
  },
  {
    "MOLECULE": "CCOc1ccc(NC(C)=O)cc1",
    "STUDY_TARGET": "mouse",
    "VAL": 1.93
  },
  {
    "MOLECULE": "Cc1c(N(C)C)c(=O)n(-c2ccccc2)n1C",
    "STUDY_TARGET": "mouse",
    "VAL": 1.00
  },
  {
    "MOLECULE": "CC(=O)Oc1ccccc1C(=O)O [acetylsalicylate]",
    "STUDY_TARGET": "mouse",
    "VAL": 1.88
  }
]
